- system: DCAF1 WD40 domain (residues 1077-1390) (Homo sapiens, UniProt Q9Y4B6)
- Construct: DCAF1 WD40 domain (residues 1077-1390)
- Sequence (Q9Y4B6 1077-1390): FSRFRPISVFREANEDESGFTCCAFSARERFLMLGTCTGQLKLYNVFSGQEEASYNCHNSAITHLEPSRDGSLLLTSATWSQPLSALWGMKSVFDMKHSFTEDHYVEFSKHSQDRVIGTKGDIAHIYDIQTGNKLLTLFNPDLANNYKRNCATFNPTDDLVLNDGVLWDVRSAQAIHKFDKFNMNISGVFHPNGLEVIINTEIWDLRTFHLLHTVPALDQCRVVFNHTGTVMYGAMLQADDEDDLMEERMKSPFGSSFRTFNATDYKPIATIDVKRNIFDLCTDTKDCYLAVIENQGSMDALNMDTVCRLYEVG
- test-name: DCAF1 binding assay by SPR (Biacore 8K+), DCAF1-3 KD
- protocol-conditions: 25 °C, read-out: DCAF1-3 SPR (KD)
pKd: −log10 of the molar value.
We begin with a simple list: items and their reported pKd.

Use these answered entries as a reference point.
molecule	pKd
OCc1cnc(N2CCOCC2)cc1N[C@@H]1CCCN(c2cccc(F)c2)C1	< 3.70
COCCOCCC1CN(c2cc(N3CCOCC3)ccn2)[C@@H]2CCCN(c3cccc(F)c3)[C@H]12 (some centres unmarked)	< 3.70
NCC(=O)NCc1ccc(N2CCCCC2)cc1N[C@@H]1CCCN(c2cccc(F)c2)C1	4.00 to 5.00
C=CC(=O)N1CCCC(c2[nH]ncc2C(=O)N[C@@H](CC(N)=O)c2cccc(Cl)c2)C1 (some centres unmarked) [I-469]	< 3.70

Now for a further molecule.
Test item c1cc(N2CCOCC2)cc(N[C@@H]2CCCN(c3ccc(CN4CCOCC4)cn3)C2)n1 ; DCAF1 WD40 domain (residues 1077-1390) (Homo sapiens, UniProt Q9Y4B6); reported pKd was 4.00 to 5.00

====

- system: DCAF1 WD40 domain (residues 1077-1390) (Homo sapiens)
- Construct: DCAF1 WD40 domain (residues 1077-1390)
- test-name: DCAF1 binding assay by SPR (Biacore 8K+), DCAF1-3 KD
- protocol-conditions: 25 °C, read-out: DCAF1-3 SPR (KD)
measured-attribute: Kd

Use these answered entries as a reference point.
input-smiles	system	Kd
COCCOCC[C@@H]1CCCN(c2ccnc(N3CC[C@H]4[C@@H]3CCCN4c3cccc(F)c3)c2)C1	DCAF1 WD40 domain (residues 1077-1390) (Homo sapiens)	10 to 100 µM
NS(=O)(=O)[C@@H]1[C@H](Nc2cc(N3CCOCC3)ccn2)CCCN1c1cccc(F)c1	DCAF1 WD40 domain (residues 1077-1390) (Homo sapiens)	> 200 µM
C=CC(=O)n1cc(-c2n[nH]cc2C(=O)N[C@@H](CC(N)=O)c2cccc(Cl)c2)cn1	DCAF1 WD40 domain (residues 1077-1390) (Homo sapiens)	> 200 µM
NC[C@@H]1CCN(c2cccc(F)c2)C[C@@H]1Nc1cc(N2CCCCC2)ccn1	DCAF1 WD40 domain (residues 1077-1390) (Homo sapiens)	100 to 200 µM
NC(=O)[C@@H]1C[C@@H](Nc2cc(N3CCCCC3)ccn2)CN(c2cccc(F)c2)C1	DCAF1 WD40 domain (residues 1077-1390) (Homo sapiens)	< 10 µM

The molecule listed as Fc1cccc(N2CCC[C@H](Nc3nccc(N4CCOCC4)n3)C2)c1 has a reported Kd of 100 to 200 µM

The molecule listed as C[C@H]1CC[C@H](c2[nH]ncc2C(=O)N[C@@H](CC(N)=O)c2cccc(Cl)c2)CC1 has a reported Kd of < 10 µM

The molecule listed as CO/N=C(/c1ccccc1)c1[nH]cc(C(=O)N[C@@H](CC(N)=O)c2cccc(Cl)c2)c1-c1c(F)ccc(F)c1C has a reported Kd of < 10 µM

====

We begin with a simple list: items and their reported Kd.
- system: DCAF1 WD40 domain (residues 1077-1390) (Homo sapiens)
- Construct: DCAF1 WD40 domain (residues 1077-1390)
- test-name: DCAF1 binding assay by SPR (Biacore 8K+), DCAF1-3 KD
- protocol-conditions: 25 °C, read-out: DCAF1-3 SPR (KD)

Use these answered entries as a reference point.
compound	system	Kd
NC(=O)C[C@H](NC(=O)c1cc[nH]c1-c1ccccc1F)c1cccc(Cl)c1	DCAF1 WD40 domain (residues 1077-1390) (Homo sapiens)	10 to 100 µM
Cc1c(F)ccc(F)c1-c1c(C(=O)N[C@@H](CC(=O)N2CCNCC2)c2cccc(Cl)c2)c[nH]c1C#N	DCAF1 WD40 domain (residues 1077-1390) (Homo sapiens)	< 10 µM

The compound listed as NC(=O)CCN(c1cc(N2CCOCC2)ccn1)[C@@H]1CCCN(c2cccc(F)c2)C1 has a reported Kd of > 200 µM

The compound listed as CC(=O)NC1CCC2(CC1)CCN(c1ccnc(N3CC[C@@H]4[C@H]3CCCN4c3cccc(F)c3)c1)CC2 has a reported Kd of < 10 µM

The compound listed as Cc1ncc(N[C@@H]2CCCN(c3cccc(F)c3)C2)cc1N1CCOCC1 has a reported Kd of > 200 µM
